Target: T1, human LILRB1 expressed on cells (human, UniProt Q8NHL6 24-650)
T1 construct: In 293T cells it was expressed from pCMV3-LILRB1-GFP; also called CHO-LILRB1; Jurkat-LILRB1
T1 sequence (Q8NHL6 other isoform, or with tags, fused parts or gaps limits assumed): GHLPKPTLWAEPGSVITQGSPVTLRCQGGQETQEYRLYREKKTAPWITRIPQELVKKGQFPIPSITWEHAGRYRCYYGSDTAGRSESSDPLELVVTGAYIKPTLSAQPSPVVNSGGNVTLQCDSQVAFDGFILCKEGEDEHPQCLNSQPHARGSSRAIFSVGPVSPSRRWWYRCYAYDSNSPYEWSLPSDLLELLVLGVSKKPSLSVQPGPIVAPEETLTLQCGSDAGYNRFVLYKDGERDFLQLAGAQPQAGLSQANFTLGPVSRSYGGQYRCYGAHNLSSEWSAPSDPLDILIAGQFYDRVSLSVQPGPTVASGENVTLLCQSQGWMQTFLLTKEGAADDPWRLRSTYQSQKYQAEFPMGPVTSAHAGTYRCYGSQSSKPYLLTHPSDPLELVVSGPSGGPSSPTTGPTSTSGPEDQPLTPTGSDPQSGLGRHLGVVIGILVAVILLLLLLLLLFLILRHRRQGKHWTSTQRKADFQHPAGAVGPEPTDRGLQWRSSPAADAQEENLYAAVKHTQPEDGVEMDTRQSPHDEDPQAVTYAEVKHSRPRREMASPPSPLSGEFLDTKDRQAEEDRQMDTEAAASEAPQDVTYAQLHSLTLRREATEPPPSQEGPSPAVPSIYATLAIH
Experiment: flow cytometry, CHO-LILRB1 cells; blocked ligand: APC HLA-G trimer tetramer
Collected IC50 values appear next to each entry.
Report only the number, with the unit µg/mL understood.

Problem: Record request: IC50 value, item #8 (antibody, human IgG1, V domains shown, also called D2M002-008) VH: EVQLQQPGAELMKPGASVKISCKATGYTFSSSWTEWVKQRPGHGLEWIGEILPGSGSTNYNEKFKGKATFTADTSSNTAYMQLSSLTSEDSAVYYCARSGAGGYDSGAFAYWGQGTLVTVSA VL: DIVLTQSPASLAVSLGQRATISCRASESIDTYGNSFMHWYQQKPGQPPKLLIYRTSNLESGIPARFSGSGSRTDFTLTINPVEADDVATYYCQQSNEDPWTFGGGTKLEIK
Result: 0.26

Problem: Would you kindly share the measured IC50 for #27 (antibody, human IgG1, V domains shown, also called D2M002-027) VH: EVQLQQSGAELMKPGASVKISCKITGYTFSSYWIEWVKQRPGHDLEWIGEILPGSGSTNYNEKFKGKASFTADTSSNTAYMQLNSLTSEDSAVYYCARSGAGGYDSGAFAYWGQGTLVTVSA VL: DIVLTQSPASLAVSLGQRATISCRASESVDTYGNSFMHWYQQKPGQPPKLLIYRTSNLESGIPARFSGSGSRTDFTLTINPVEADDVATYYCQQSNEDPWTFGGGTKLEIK ?
Result: 0.569

Problem: Would you kindly share the measured IC50 for Anti-LILRB1 antibody 3C1 (antibody, human IgG4 S228P, lambda, V domains shown) VH: EVQLVESGGGLVQPGGSLRLSCAASGFTFSDYDMHWVRQATGKGLEWVATIDTAGDTYYPDSVRGRFTISRENAKNSLSLQMNSLRAGDTAVYFCARDVPGTGFDHWGQGTLVTVSS VL: SSELTQDPAVSVALGQTVRITCQGDSLRSYYESWYQQKPGQAPVLVIYGKNNRPSGIPDRFSGSISGNTASLTITGTQAEDEADYYCNSRDNSGDHWVFGGGTRLTVLG ?
Result: 0.012
